# Post-emergence herbicidal activity in % against VERPE values compiled below
System: Veronica persica
METHOD: Post-emergence herbicidal activity against VERPE
Type: in vivo
DETAILS: dosage 320 g/ha, rated visually after about 3 weeks
MEASUREMENT_NAME: Post-emergence herbicidal activity in % against VERPE (%)

ENTRY_SMILES: C[C@]1(C(=O)N[C@@H]2CO[C@H](C(=O)NS(C)(=O)=O)C2)CC(c2cc(F)cc(F)c2)=NO1
VALUE_MEASURED: 80
--
ENTRY_SMILES: CONC(=O)[C@@H]1C[C@H](NC(=O)[C@@]2(C)CC(c3cc(F)cc(F)c3)=NO2)CO1
VALUE_MEASURED: 80
--
ENTRY_SMILES: C=C[C@]1(C(=O)N[C@@H]2CO[C@H](C(=O)NCCC(=O)OC)C2)CC(c2cc(F)cc(F)c2)=NO1
VALUE_MEASURED: 80
--
ENTRY_SMILES: CCCS(=O)(=O)NC(=O)[C@@H]1C[C@H](NC(=O)[C@@]2(C)CC(c3cc(F)cc(F)c3)=NO2)CO1
VALUE_MEASURED: 90

Source: patent US11613522B2
